Each item that follows carries a reported melting point.
Answer shape: numeric part, then the unit.

# example entries with known answers
>  <compound>
CCCCC(C)CC (stereo not given)

>  <melting point>
-121 °C

$$$$
>  <compound>
O=C(O)C1(C(=O)O)CC1

>  <melting point>
132 °C

$$$$
>  <compound>
CC(=O)Nc1ccc(C(=O)O)cc1 [4-acetamidobenzoic_acid]

>  <melting point>
259 °C

$$$$
>  <compound>
CC12CCC(C(=CC=C3C(=O)C4(C)CCC3C4(C)C)C1=O)C2(C)C

>  <melting point>
240 °C

$$$$

Consider C[C@]12C=CC(=O)C=C1CC[C@@H]1[C@@H]2C(=O)C[C@@]2(C)[C@H]1CC[C@]2(O)C(=O)CO . Its measured melting point is 234 °C

Consider Cc1ccc(C=O)cc1 . Its measured melting point is -6 °C

Consider Cn1nc(CC#N)c2c(N)ncnc21 . Its measured melting point is 137 °C

Consider O=[N+]([O-])c1cccc(CCl)c1 [3-nitrobenzyl_chloride] . Its measured melting point is 47 °C

Consider COP(=S)(OC)Oc1cc(Cl)c(Cl)cc1Cl . Its measured melting point is 35 °C

Consider CCCCOCCO . Its measured melting point is -75 °C

----------
quantity measured: melting point (°C)
Give just the number in °C; leave the unit off.

>  <molecule>
O=[N+]([O-])c1cccc(I)c1 [1-iodo-3-nitrobenzene]

>  <unit symbol>
°C

>  <melting point>
37

$$$$
>  <molecule>
CC12CCC3C(C(=O)CC4CC(=O)CCC43C)C1CCC2=O (centres undefined) [androstane-3,7,17-trione]

>  <unit symbol>
°C

>  <melting point>
232

$$$$
>  <molecule>
CC1(C)C[C@@H](C(=O)O)[C@@H]1N (relative stereo) [trans-2-Amino-3,3-dimethylcyclobutane-1-carboxylic acid]

>  <unit symbol>
°C

>  <melting point>
155

$$$$

Please examine the following record next.
Consider OB(O)c1ccoc1 [furan-3-boronic acid] . Its measured melting point is 142

----------
quantity measured: melting point (°C)
Give just the number in °C; leave the unit off.

Consider O=C1c2ccccc2-c2cccc3cccc1c23 [7h-benz[de]anthracen-7-one] . Its measured melting point is 173

Consider O=c1[nH][nH]c(=O)n1-c1ccccc1 . Its measured melting point is 208

Consider COc1ccccc1N1CCNCC1 . Its measured melting point is 37

Consider CCOC(=O)/C=C/c1cccc(/C=C/C(=O)OCC)c1 [diethyl (2E,2'E)-3,3'-benzene-1,3-diylbisprop-2-enoate] . Its measured melting point is 54

Consider CSc1ccc(B(O)O)cc1 . Its measured melting point is 210

Consider CCOC(=O)c1ccc(C(C)=O)cc1 [ethyl_p-acetylbenzoate] . Its measured melting point is 55

Consider OC[C@H]1O[C@@](CO)(O[C@H]2O[C@H](CO)[C@@H](O)[C@H](O)[C@H]2O)[C@@H](O)[C@@H]1O . Its measured melting point is 188

Consider O=S(=O)(Cl)c1ccc2c(c1)OCCO2 [1,4-benzodioxane-6-sulfonyl chloride] . Its measured melting point is 66

Consider CC(C)C(C(=O)O)C(=O)O . Its measured melting point is 89

----------
quantity measured: melting point (°C)
Give just the number in °C; leave the unit off.

# example entries with known answers
>  <compound>
O=C(O)c1cccc([N+](=O)[O-])c1Cl [2-chloro-3-nitrobenzoic acid]

>  <quantity measured>
melting point

>  <obs value>
184

$$$$
>  <compound>
O=C(O)C=CC(=O)O [maleic acid]

>  <quantity measured>
melting point

>  <obs value>
134

$$$$
>  <compound>
COc1cc(O)cc(OC)c1 [3,5-dimethoxyphenol]

>  <quantity measured>
melting point

>  <obs value>
47

$$$$
>  <compound>
CCOC(=O)c1cc(C)[nH]n1 [Ethyl 5-methyl-1H-pyrazole-3-carboxylate]

>  <quantity measured>
melting point

>  <obs value>
87

$$$$
>  <compound>
CC(Oc1cc(Cl)c(Cl)cc1Cl)C(=O)O (stereo not given) [2-(2,4,5-Trichlorophenoxy)propanoic acid]

>  <quantity measured>
melting point

>  <obs value>
176

$$$$
>  <compound>
c1ccc2c(c1)CCCC2 [1,2,3,4-tetrahydronaphthalene(tetralin)]

>  <quantity measured>
melting point

>  <obs value>
-35

$$$$
>  <compound>
Cc1ccc(B(O)O)c(Cl)c1 [2-chloro-4-methylbenzeneboronic acid]

>  <quantity measured>
melting point

>  <obs value>
200

$$$$
>  <compound>
C=C(C)CC [2-methyl-1-butene]

>  <quantity measured>
melting point

>  <obs value>
-137

$$$$
>  <compound>
CCCCC(CC)CN (stereo not given) [2-ethylhexylamine]

>  <quantity measured>
melting point

>  <obs value>
-76

$$$$

Please examine the following record next.
Consider OC[C@@H](O)[C@@H](O)[C@H](O)[C@H](O)CO [D-Mannitol] . Its measured melting point is 167
